// provenance: the supplement of paper PMC9801561

System: Escherichia coli Nissle 1917
assayNotes: DuctApe activity index of respiration/growth curve (0 no growth to 9 maximum) (index 0-9); higher = more growth / nutrient utilisation, active = 3 or more; extreme values may be limits of the assay
assayContext: nutrient role: C-Source, carboxylic acid; incubation: 48 h, 37 °C
endpointName: DuctApe activity index

These solved cases illustrate the format of a correct answer.
                                   compound        result
0   O=C(O)c1ccccc1O [2-Hydroxybenzoic acid]  0 (inactive)
1  O=C(O)[C@H]1OC(O)[C@H](O)[C@@H](O)[C@@H]1O (stereo partly drawn) [D-Glucuronic acid]    9 (active)

Exercise: Please list DuctApe activity index recorded for the compound O=C1O[C@H]([C@@H](O)CO)[C@@H](O)[C@@H]1O [L-Galactonic acid-g-Lactone]
Solution: 9 (active)

Exercise: Please list DuctApe activity index recorded for the compound O=C(O)Cc1ccc(O)cc1 [p-Hydroxyphenyl Acetic acid]
Solution: 0 (inactive)

Exercise: Please list DuctApe activity index recorded for the compound CCC(=O)C(=O)O [a-Ketobutyric acid]
Solution: 1.67 (inactive)

* * *

# area under OmniLog respiration curve per record follows
Test system: Escherichia coli Nissle 1917
assayNotes: area under OmniLog respiration curve over 48 h (OmniLog units x h); higher = more growth / nutrient utilisation; extreme values may be limits of the assay
assayContext: nutrient role: sole phosphorus source (pyruvate carbon); incubation: 48 h, 37 °C
Give the value as a plain number.

>>> print(df.to_string())
                                   compound                        target  recordednumber
0  Cc1cn([C@H]2C[C@H](O)[C@@H](COP(=O)(O)O)O2)c(=O)[nH]c1=O [Thymidine 5`-Monophosphate]  Escherichia coli Nissle 1917            8850

Exercise: Please list area under OmniLog respiration curve recorded for the compound C=C(OP(=O)(O)O)C(=O)O [Phosphoenol Pyruvate]
Solution: 9270

Exercise: Please list area under OmniLog respiration curve recorded for the compound NC(=O)OP(=O)(O)O [Carbamyl Phosphate]
Solution: 9480

Exercise: Please list area under OmniLog respiration curve recorded for the compound NCCOP(=O)(O)O [O-Phosphoryl-Ethanolamine]
Solution: 8740

Exercise: Please list area under OmniLog respiration curve recorded for the compound O=P1(O)OP(=O)(O)OP(=O)(O)O1 [Trimetaphosphate]
Solution: 9730

* * *

Test system: Escherichia coli Nissle 1917
assayNotes: area under OmniLog respiration curve over 48 h (OmniLog units x h); higher = more growth / nutrient utilisation; extreme values may be limits of the assay
assayContext: nutrient role: C-Source, carboxylic acid; incubation: 48 h, 37 °C
endpointName: area under OmniLog respiration curve
Give the value as a plain number.

>>> df
                                   compound                          endpointname  recordednumber
0                                  CCC(=O)O  area under OmniLog respiration curve            7450
1                     O=C(O)C[C@H](O)C(=O)O  area under OmniLog respiration curve            8910
2                      O=C(O)CCCCCCCCC(=O)O  area under OmniLog respiration curve            4.72
3                             O=C(O)CC(=O)O  area under OmniLog respiration curve            4.72
4  N[C@@H](C(=O)O)[C@@H](O)[C@H](O)[C@H](O)CO  area under OmniLog respiration curve            1010
5  O=C(O)c1ccc(O)cc1 [4-Hydroxybenzoic acid]  area under OmniLog respiration curve            4.72

Exercise: Quote Escherichia coli Nissle 1917 area under OmniLog respiration curve for entry CC[C@H](O)C(=O)O [a-Hydroxybutyric acid] .
Solution: 2930

Exercise: Quote Escherichia coli Nissle 1917 area under OmniLog respiration curve for entry CCCC(=O)C(=O)O .
Solution: 4.72

Exercise: Quote Escherichia coli Nissle 1917 area under OmniLog respiration curve for entry O=C(CO)[C@@H](O)[C@H](O)[C@@H](O)C(=O)O .
Solution: 118

Exercise: Quote Escherichia coli Nissle 1917 area under OmniLog respiration curve for entry C[C@H](O)C(=O)O .
Solution: 7880

Exercise: Quote Escherichia coli Nissle 1917 area under OmniLog respiration curve for entry CCCCCC(=O)O .
Solution: 4.72

Exercise: Quote Escherichia coli Nissle 1917 area under OmniLog respiration curve for entry O=C(O)/C=C/C(=O)O .
Solution: 8610

Exercise: Quote Escherichia coli Nissle 1917 area under OmniLog respiration curve for entry C[C@@H](O)CC(=O)O [b-Hydroxybutyric acid] .
Solution: 186

Exercise: Quote Escherichia coli Nissle 1917 area under OmniLog respiration curve for entry O=C(O)[C@H]1OC(O)[C@H](O)[C@@H](O)[C@@H]1O (stereo partly drawn) .
Solution: 10000

Exercise: Quote Escherichia coli Nissle 1917 area under OmniLog respiration curve for entry O=C(O)Cc1ccc(O)cc1 [p-Hydroxyphenyl Acetic acid] .
Solution: 40.5

Exercise: Quote Escherichia coli Nissle 1917 area under OmniLog respiration curve for entry O=C1O[C@@H]([C@H](O)CO)[C@H](O)[C@H]1O .
Solution: 8410

Exercise: Quote Escherichia coli Nissle 1917 area under OmniLog respiration curve for entry C/C=C/C=C/C(=O)O .
Solution: 7.09

Exercise: Quote Escherichia coli Nissle 1917 area under OmniLog respiration curve for entry O=C(O)C[C@@H](O)C(=O)O .
Solution: 3920

Exercise: Quote Escherichia coli Nissle 1917 area under OmniLog respiration curve for entry O=C1O[C@H]([C@@H](O)CO)[C@@H](O)[C@@H]1O .
Solution: 10200

Exercise: Quote Escherichia coli Nissle 1917 area under OmniLog respiration curve for entry NC(=O)CCC(=O)O .
Solution: 9.14

Exercise: Quote Escherichia coli Nissle 1917 area under OmniLog respiration curve for entry O=C(O)CCC(=O)O .
Solution: 9020

Exercise: Quote Escherichia coli Nissle 1917 area under OmniLog respiration curve for entry CCC(=O)C(=O)O .
Solution: 800

Exercise: Quote Escherichia coli Nissle 1917 area under OmniLog respiration curve for entry O=C(O)C(=O)O .
Solution: 5.41

* * *

System: Escherichia coli Nissle 1917
assayNotes: DuctApe activity index of respiration/growth curve (0 no growth to 9 maximum) (index 0-9); higher = more growth / nutrient utilisation, active = 3 or more; extreme values may be limits of the assay
assayContext: nutrient role: sole sulfur source (pyruvate carbon); incubation: 48 h, 37 °C
Returns: one label drawn from active, inactive

>>> df
                                   compound                        target  category
0  NC(=O)CCCCC1CCSS1 (racemic) [DL-Lipoamide]  Escherichia coli Nissle 1917  inactive
1  C[C@H](CCC(=O)NCCS(=O)(=O)O)[C@H]1CC[C@H]2[C@@H]3[C@H](O)C[C@@H]4C[C@H](O)CC[C@]4(C)[C@H]3C[C@H](O)[C@]12C  Escherichia coli Nissle 1917    active

Exercise: Hi team, can someone confirm the assay call for CCCCS(=O)(=O)O ?
Solution: active

Exercise: Hi team, can someone confirm the assay call for Nc1ccc(S(=O)(=O)O)cc1 ?
Solution: inactive

* * *

System: Escherichia coli Nissle 1917
assayNotes: DuctApe activity index of respiration/growth curve (0 no growth to 9 maximum) (index 0-9); higher = more growth / nutrient utilisation, active = 3 or more; extreme values may be limits of the assay
assayContext: nutrient role: C-Source, carbohydrate; incubation: 48 h, 37 °C
Returns: one label drawn from t for active, f for inactive

Worked set:
                                   compound                        target  category
0  OC[C@H]1O[C@@](CO)(O[C@H]2O[C@H](CO)[C@@H](O)[C@H](O)[C@H]2O)[C@@H](O[C@H]2O[C@H](CO)[C@@H](O)[C@H](O)[C@H]2O)[C@@H]1O  Escherichia coli Nissle 1917         f
1  Nc1ncnc2c1ncn2[C@H]1C[C@H](O)[C@@H](CO)O1  Escherichia coli Nissle 1917         t
2                                  OCC(O)CO  Escherichia coli Nissle 1917         t
3   OC[C@@H](O)[C@@H](O)[C@H](O)[C@@H](O)CO  Escherichia coli Nissle 1917         t
4  O=P(O)(O)OC[C@H]1OC(O)(CO)[C@@H](O)[C@@H]1O (stereo partly drawn) [D-Fructose-6-Phosphate]  Escherichia coli Nissle 1917         t
5  OCC1(O)OC[C@H](O)[C@@H](O)[C@@H]1O (stereo partly drawn)  Escherichia coli Nissle 1917         t
6  CO[C@@H]1O[C@H](CO)[C@@H](O)[C@H](O)[C@H]1O [b-Methyl-D-Glucoside]  Escherichia coli Nissle 1917         t

Exercise: Hi team, can someone confirm the assay call for OC[C@H]1O[C@H](OC[C@H]2OC(O)[C@H](O)[C@@H](O)[C@@H]2O)[C@H](O)[C@@H](O)[C@H]1O (stereo partly drawn) ?
Solution: t
